species: Rattus norvegicus; assay type: toxicity, organism-based, Sprague-Dawley; settings: in vivo, po, 0 mg/kg, 24 h, vehicle control, tissue Blood, route oral GAVAGE, dose level Control, time 1 day, vehicle 100 % SALINE
Description: DrugMatrix - Regimen: Single
Readout Label: ABSOLUTE MONOCYTE (cells/µL)
Answer format: numeric, cells/µL implied, no suffix.

q: Provide only the value of recorded ABSOLUTE MONOCYTE for COc1cccc2c1C(=O)c1c(O)c3c(c(O)c1C2=O)C[C@@](O)(C(C)=O)C[C@@H]3O[C@H]1C[C@H](N)[C@H](O)[C@H](C)O1 [DAUNORUBICIN]
a: 350

---

species: Rattus norvegicus; experiment: DrugMatrix - Regimen: Daily Repeat; format: toxicity, organism-based, Sprague-Dawley; parameters: regimen Daily Repeat, gender Male, age 6-8 weeks; settings: in vivo, po, 0 mg/kg, 120 h, tissue Plasma, route oral GAVAGE, dose level Control, time 5 day, […]
Values of ALKALINE PHOSPHATASE greater than or equal to 300 u/L map to t; values below map to f.

>>> discrete_label("CC(=O)Oc1ccccc1C(=O)O")
"t"
>>> discrete_label("c1ccoc1")
"t"
>>> discrete_label("CS(=O)(=O)Nc1ccc([N+](=O)[O-])cc1Oc1ccccc1 [NIMESULIDE]")
"t"

q: Could you verify whether the entry CCCCC(=O)N(Cc1ccc(-c2ccccc2-c2nnn[nH]2)cc1)[C@H](C(=O)O)C(C)C shows ALKALINE PHOSPHATASE of no less than 300 u/L?
a: t

q: hey, is ALKALINE PHOSPHATASE for this one >= 300 u/L? CCc1ccc(CCOc2ccc(CC3SC(=O)NC3=O)cc2)nc1 (configuration not stated)
a: f

---

species on record: Rattus norvegicus; type: toxicity, organism-based, Sprague-Dawley; details: in vivo, po, 0 mg/kg, 24 h, tissue Blood, route oral GAVAGE, dose level Control, time 1 day, vehicle .5 % CMC
Readout Label: ABSOLUTE MONOCYTE (cells/µL)
Write down the numeric answer in cells/µL and omit the unit.

q: Please supply the value of reported ABSOLUTE MONOCYTE for the item CN(C)CCN(Cc1cccs1)c1ccccn1
a: 260

---

organism: Rattus norvegicus; test: DrugMatrix - Regimen: Daily Repeat; assay type: toxicity, organism-based, Sprague-Dawley; set-up: regimen Daily Repeat, gender Male, age 6-8 weeks; conditions: in vivo, iv, 0 mg/kg, 120 h, tissue Plasma, dose level Control, time 5 day, vehicle 100 % SALINE
Listed here: items and their measured SODIUM.
Reply with just the number (in MEQ/L).

>>> recorded_result("O=C(O)P(=O)(O)O")
143.57
>>> recorded_result("COc1cccc2c1C(=O)c1c(O)c3c(c(O)c1C2=O)C[C@@](O)(C(C)=O)C[C@@H]3O[C@H]1C[C@H](N)[C@H](O)[C@H](C)O1")
142.55
>>> recorded_result("C[N+](C)(C)CCOC(=O)CCC(=O)OCC[N+](C)(C)C.[Cl-].[Cl-] [SUCCINYLCHOLINE CHLORIDE]")
143.4
>>> recorded_result("N=C(N)c1ccc(OCCCCCOc2ccc(C(=N)N)cc2)cc1")
143.4

# ---- query compound ----
q: Please report the measured SODIUM for O=c1[nH]c(=O)n([C@H]2C[C@H](O)[C@@H](CO)O2)cc1F
a: 142.45
